Data credit: the NIST ThermoML archive (doi:10.1016/j.fluid.2014.11.020)

Kindly supply the reported activity coefficient values for the records listed here.
assay: activity coefficient (dimensionless); of the first substance listed, at infinite dilution; xn = mol fraction of the nth substance listed; details: 343.15 K; Liquid; Chromatography; x1 = 0
Output: the number by itself.

query: # lookup: activity coefficient of CCC(C)=O [butanone] + N#C[N-]C#N.N#C[N-]C#N.c1ccc(Cn2cc[n+](COCCCOC[n+]3ccn(Cc4ccccc4)c3)c2)cc1
result: 1.41

query: Which activity coefficient is reported for this compound? CCC(=O)CC [pentan-3-one] + CCCCCCCCn1cc[n+](COCCC)c1C.N#C[N-]C#N
result: 0.91

query: Can you look up the measured activity coefficient of C[N+](=O)[O-] [nitromethane] + CCCOC[n+]1ccc(N(C)C)cc1.O=S(=O)([N-]S(=O)(=O)C(F)(F)F)C(F)(F)F for me?
result: 0.54

query: For the compound shown here, CO [methanol] + CCCCCCCCn1cc[n+](COCCCOC[n+]2ccn(CCCCCCCC)c2C)c1C.N#C[N-]C#N.N#C[N-]C#N , give the reported activity coefficient.
result: 0.21

query: Query (compound): CCCCCCCCC [nonane] + CCCOC[n+]1ccc(N(C)C)cc1.O=S(=O)([N-]S(=O)(=O)C(F)(F)F)C(F)(F)F ; field requested: activity coefficient
result: 27.1

query: Quick check: activity coefficient of CCCCCCCC [octane] + CCCCCCCCn1cc[n+](COCCC)c1C.N#C[N-]C#N ?
result: 9.94

query: Field request: activity coefficient | item: c1ccsc1 [thiophene] + CN(C)c1cc[n+](COCCCOC[n+]2ccc(N(C)C)cc2)cc1.O=S(=O)([N-]S(=O)(=O)C(F)(F)F)C(F)(F)F.O=S(=O)([N-]S(=O)(=O)C(F)(F)F)C(F)(F)F
result: 0.57

---

Provide the recorded activity coefficient for the entries that follow.
test: activity coefficient (dimensionless); of the first substance listed, at infinite dilution; xn = mol fraction of the nth substance listed; conditions: 323.15 K; Liquid; Chromatography; x1 = 0
Write the value as a bare number.

query: Looking for the measured activity coefficient of c1ccsc1 [thiophene] + CCCCCCCCn1cc[n+](COCCCOC[n+]2ccn(CCCCCCCC)c2C)c1C.O=S(=O)([N-]S(=O)(=O)C(F)(F)F)C(F)(F)F.O=S(=O)([N-]S(=O)(=O)C(F)(F)F)C(F)(F)F , can you help?
result: 0.38

query: Request the reported activity coefficient associated with CC1CCCC1 [methylcyclopentane] + CCCOC[n+]1ccn(C)c1.N#C[N-]C#N
result: 27.7

query: Entry C[N+](=O)[O-] [nitromethane] + CCCOC[n+]1ccn(C)c1.F[B-](F)(F)F : reported activity coefficient = ?
result: 0.65

query: Entry Cc1ccc(C)cc1 [1,4-dimethylbenzene] + CCCOC[n+]1ccn(Cc2ccccc2)c1.O=S(=O)([N-]S(=O)(=O)C(F)(F)F)C(F)(F)F has what activity coefficient?
result: 1.56

query: What measured activity coefficient goes with CCCCCCCCCCCC [dodecane] + Cn1cc[n+](COCCCOC[n+]2ccn(C)c2)c1.N#C[N-]C#N.N#C[N-]C#N ?
result: 1150

query: // returns reported activity coefficient for input c1ccsc1 [thiophene] + CCCOC[n+]1ccn(C)c1.O=S(=O)([N-]S(=O)(=O)C(F)(F)F)C(F)(F)F
result: 1.06

query: Request the reported activity coefficient associated with CCC[N+](=O)[O-] [1-nitropropane] + CCCOC[n+]1ccn(C)c1.F[B-](F)(F)F
result: 1.78

query: I am curious: what activity coefficient value has been reported for CCCCCCCCCCCC [dodecane] + CCCOC[n+]1ccc(N(C)C)cc1.O=S(=O)([N-]S(=O)(=O)C(F)(F)F)C(F)(F)F ?
result: 73.5

query: Would you kindly share the measured activity coefficient for ClC(Cl)(Cl)Cl [tetrachloromethane] + CCCOC[n+]1ccn(C)c1.O=S(=O)([N-]S(=O)(=O)C(F)(F)F)C(F)(F)F ?
result: 3

query: Any idea what activity coefficient was measured for ClC(Cl)Cl [trichloromethane] + Cn1cc[n+](COCCCOC[n+]2ccn(C)c2)c1.O=S(=O)([N-]S(=O)(=O)C(F)(F)F)C(F)(F)F.O=S(=O)([N-]S(=O)(=O)C(F)(F)F)C(F)(F)F ?
result: 0.87

query: For the compound shown here, CCCCCCCCCC [decane] + CCCOC[n+]1ccn(Cc2ccccc2)c1.O=S(=O)([N-]S(=O)(=O)C(F)(F)F)C(F)(F)F , give the reported activity coefficient.
result: 28.8

query: Value lookup for activity coefficient; key = c1ccccc1 [benzene] + CCCOC[n+]1ccn(Cc2ccccc2)c1.O=S(=O)([N-]S(=O)(=O)C(F)(F)F)C(F)(F)F
result: 0.81

query: Find the recorded activity coefficient belonging to Cc1ccccc1C [1,2-dimethylbenzene] + CCCCCCCCn1cc[n+](COCCCOC[n+]2ccn(CCCCCCCC)c2C)c1C.N#C[N-]C#N.N#C[N-]C#N and report it.
result: 1.16

query: What value of activity coefficient has been reported for the following compound? C[N+](=O)[O-] [nitromethane] + CCCCCCCCn1cc[n+](COCCC)c1C.O=S(=O)([N-]S(=O)(=O)C(F)(F)F)C(F)(F)F
result: 0.56
